All values here come from ChEMBL document CHEMBL1129189.

Target: Retinoic acid receptor RXR-alpha (Homo sapiens)
Sequence (P19793 whole entry): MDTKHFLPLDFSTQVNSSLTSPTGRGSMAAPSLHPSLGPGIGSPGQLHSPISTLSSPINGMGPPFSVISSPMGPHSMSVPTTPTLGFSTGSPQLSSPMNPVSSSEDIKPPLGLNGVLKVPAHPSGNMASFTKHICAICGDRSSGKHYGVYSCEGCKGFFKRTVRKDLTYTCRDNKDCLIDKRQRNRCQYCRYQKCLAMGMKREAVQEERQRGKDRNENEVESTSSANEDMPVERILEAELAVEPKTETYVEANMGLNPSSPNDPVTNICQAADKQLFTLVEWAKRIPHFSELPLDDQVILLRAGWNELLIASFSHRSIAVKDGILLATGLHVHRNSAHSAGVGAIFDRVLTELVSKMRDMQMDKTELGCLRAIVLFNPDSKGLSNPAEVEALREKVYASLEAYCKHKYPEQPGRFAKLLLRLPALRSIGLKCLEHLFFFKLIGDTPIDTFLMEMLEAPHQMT
Experiment: Compound was tested for functional activity in CV-1 cells transfected with an expression vector for retinoid X receptor alpha using transactivation assay
recorded metric: EC50 (nM)
Unit nM implied. Number only.

Exam item: Need EC50 of CC(/C=C/C1CC1(C)c1cc2c(cc1C)C(C)(C)CCC2(C)C)=C\C(=O)O (configuration not stated) , thanks.
Marked response: 130
